system: virus containing G140S/Q148H mutation in the integrase gene; conditions: k = IC50(mutant)/IC50(wild type)
Entries and their Number of fold shift in IC50 versus wild type IIIB, G140S/Q148H values follow.
Write no unit; give the number alone.

Qu. # get_value(readout='Number of fold shift in IC50 versus wild type IIIB, G140S/Q148H', item= Cc1ccc(CNC(=O)c2nc3n(c(=O)c2O)[C@H](C)CCC[C@H]3N(C)C(=O)C(=O)N(C)C)cc1F (racemic) )
Ans. 4

Qu. Quick check: Number of fold shift in IC50 versus wild type IIIB, G140S/Q148H of Cc1nnc(C(=O)NC(C)(C)c2nc(C(=O)NCc3ccc(F)cc3)c(O)c(=O)n2C)o1 [Compound X, raltegravir, reference compound] ?
Ans. 397

Qu. // returns reported Number of fold shift in IC50 versus wild type IIIB, G140S/Q148H for input "CO[C@]1(C)CC[C@@H](N(C)C(=O)C(=O)N(C)C)c2nc(C(=O)NCc3ccc(F)c(C)c3)c(O)c(=O)n2C1"
Ans. 10

Qu. Give the measured Number of fold shift in IC50 versus wild type IIIB, G140S/Q148H of "CC[C@H]1COC[C@@H](N(C)C(=O)C(=O)N(C)C)c2nc(C(=O)NCc3ccc(F)cc3)c(O)c(=O)n21" .
Ans. 4

Qu. Item under review: "Cc1cc(CNC(=O)c2nc3n(c(=O)c2O)[C@H](C)COC[C@H]3N(C)C(=O)C(=O)N(C)C)ccc1F" . Reported Number of fold shift in IC50 versus wild type IIIB, G140S/Q148H?
Ans. 72

Next, consider the following compound.
Qu. Consider the compound "Cc1cc(CNC(=O)c2nc3n(c(=O)c2O)CC(C)(C)CC[C@@H]3N(C)C(=O)C(=O)N(C)C)ccc1F" and give its measured Number of fold shift in IC50 versus wild type IIIB, G140S/Q148H.
Ans. 34

###

target: recombinant integrase (HIV-1 integrase) (Human immunodeficiency virus type 1 group M subtype B, UniProt P04585); construct: Assays for the strand transfer activity of integrase were conducted in accordance with WO 02/30930 for recombinant integrase; experiment: HIV-1 integrase assay: strand transfer catalyzed by recombinant integrase; assay type: biochemical; conditions: strand transfer activity, read-out: IC50
value.type: IC50 (nM)
Reply numerically in nM, unit not repeated.

The cases that follow already have their IC50 on record.
Qu. Query (compound): "CC[C@H]1COC[C@H](N(C)C(=O)C(=O)N(C)C)c2nc(C(=O)NCc3ccc(F)cc3)c(O)c(=O)n21" ; field requested: IC50
Ans. 40

Qu. Item under review: "Cc1cc(CNC(=O)c2nc3n(c(=O)c2O)[C@@H](C)COC[C@@H]3N(C)C(=O)C(=O)N(C)C)ccc1F" . Reported IC50?
Ans. 39

Qu. Look up IC50 for this compound: Cc1ccc(CNC(=O)c2nc3n(c(=O)c2O)[C@H](C)CCC[C@H]3N(C)C(=O)C(=O)N(C)C)cc1F (racemic)
Ans. 40

Continue with the compound presented below.
Qu. Quick check: IC50 of "Cc1cc(CNC(=O)c2nc3n(c(=O)c2O)CC(C)(C)CC[C@H]3N(C)C(=O)C(=O)N(C)C)ccc1F" ?
Ans. 42

###

test system: virus containing Y143R mutation in the integrase gene; details: k = IC50(mutant)/IC50(wild type)
value.type: Number of fold shift in IC50 versus wild type IIIB, Y143R
Answer with a bare number; do not write a unit.

Qu. Could you share which Number of fold shift in IC50 versus wild type IIIB, Y143R value was measured for "Cc1cc(CNC(=O)c2nc3n(c(=O)c2O)[C@H](C)COC[C@H]3N(C)C(=O)C(=O)N(C)C)ccc1F" ?
Ans. 2

Qu. What does the data say about its Number of fold shift in IC50 versus wild type IIIB, Y143R? Entry: "CC[C@@H]1COC[C@H](N(C)C(=O)C(=O)N(C)C)c2nc(C(=O)NCc3ccc(F)cc3)c(O)c(=O)n21"
Ans. 2

Now consider the entry below.
Qu. Any idea what its Number of fold shift in IC50 versus wild type IIIB, Y143R is? The molecule is "Cc1cc(CNC(=O)c2nc3n(c(=O)c2O)[C@@H](C)COC[C@@H]3N(C)C(=O)C(=O)N(C)C)ccc1F"
Ans. 2
